The values you see were collected from the supplement of paper PMC9170038.

- Test system: MS2 coat protein
- test: apparent KD of MS2 coat protein; designed switch direction (-1 OFF switch, 1 ON switch): -1; higher = weaker reporter binding
- details: input ligand: FMN 200 uM
measured property: apparent KD of MS2 coat protein (nM)
Give the quantity in nM, number only.

Below are worked cases with known answers.
sequence record	measured property	recorded measurement
CAGUACUGAGGAUAUACAUGAGGAUCACCCAUGUGAUCUGGUGCACGCGUACGUGUACGUAGAAGGCAGUACUG [JL 3.27 m4] (Eterna round: R97, puzzle: Exclusion 3)	apparent KD of MS2 coat protein	1280
GGGUAGGGAGGAUAUCCAAUAUAUGACAUGAGGAUCACCCAUGUUUCCACUCGUACCUCCGGAGAAGGCCCAUCCC [Ex5 #14] (Eterna round: R97, puzzle: Exclusion 5)	apparent KD of MS2 coat protein	25.6
UGUUGGUACGUAGGAUAUCCACCAACAGGUGGAAGGAUAUGUACGCAGAAGGUUCGCCAACAGGCGGAGAAGGACGUGGUAACU [pwkr exNG2 2xF7 2xFMN.29] (Eterna round: R96, puzzle: Exclusion NG 2)	apparent KD of MS2 coat protein	34.6
AUAAUGUCAGGAUAUCAGUCGUACAGCCUCGGCUGUACGACUGAGAAGGGACAUGAGGAUCACCCAUGUGGUCA [E4/6-A2] (Eterna round: R97, puzzle: Exclusion 4)	apparent KD of MS2 coat protein	42.4
GGGCCCGGUGUGAGGAUAUGUUUGGGUAAACCCGGGCAGAAGGCACAUGAGGAUCACCCAUGUAAGCCGGGCCC [-37.5, -35.4 kcal, A 23%, 5bbis-0] (Eterna round: R97, puzzle: Brourd's mod of Exclusion 4)	apparent KD of MS2 coat protein	14.7

Exercise: Can you look up apparent KD of MS2 coat protein on MS2 coat protein for CUCGUGCAGCAAAGCUGUACGAGUACAUGAGGAUCACCCAUGUAGGAUAUGGUACGCAAAGCGUGCUAGAAGGAUAUGUGAAAG [Mat - Exclusion NG 3 - Mod of JL - D89] (Eterna round: R96, puzzle: Exclusion NG 3) ?
Key: 44.2

Exercise: Can you look up apparent KD of MS2 coat protein on MS2 coat protein for UUAAAUCAUGUAGGAUAUGCGUGGCGAAGCUAUGCAGAAGGACAUGAGGAUCACCCAUGUUCUAGCGUCUGAGUACAGAUGCAA [Mat - Exclusion NG 1 - Mod of JL - D2] (Eterna round: R96, puzzle: Exclusion NG 1) ?
Key: 244

Exercise: Can you look up apparent KD of MS2 coat protein on MS2 coat protein for GGAUCGAAUGUGAGGAUAUACCUAUGGAAACAUAGGUAGAAGGCACAUGAGGAUCACCCAUGUCCAAACGGUCC [Mat - Exclusion 4 - Eli Mod - D13] (Eterna round: R97, puzzle: Brourd's mod of Exclusion 4) ?
Key: 1050

Exercise: Can you look up apparent KD of MS2 coat protein on MS2 coat protein for ACCUUACUGGUCAGGAUAUACAGUCUUUGGUGUGUGUAGAAGGGACAUGAGGAUCACCCAUGUAGGUUGCUUUA [alecazam62] (Eterna round: R97, puzzle: Brourd's mod of Exclusion 4) ?
Key: 220
